The values you see were collected from patent US9783527B2.

Target: human Nav1.8 (Homo sapiens (Human))
Sequence (Q9Y5Y9 whole entry): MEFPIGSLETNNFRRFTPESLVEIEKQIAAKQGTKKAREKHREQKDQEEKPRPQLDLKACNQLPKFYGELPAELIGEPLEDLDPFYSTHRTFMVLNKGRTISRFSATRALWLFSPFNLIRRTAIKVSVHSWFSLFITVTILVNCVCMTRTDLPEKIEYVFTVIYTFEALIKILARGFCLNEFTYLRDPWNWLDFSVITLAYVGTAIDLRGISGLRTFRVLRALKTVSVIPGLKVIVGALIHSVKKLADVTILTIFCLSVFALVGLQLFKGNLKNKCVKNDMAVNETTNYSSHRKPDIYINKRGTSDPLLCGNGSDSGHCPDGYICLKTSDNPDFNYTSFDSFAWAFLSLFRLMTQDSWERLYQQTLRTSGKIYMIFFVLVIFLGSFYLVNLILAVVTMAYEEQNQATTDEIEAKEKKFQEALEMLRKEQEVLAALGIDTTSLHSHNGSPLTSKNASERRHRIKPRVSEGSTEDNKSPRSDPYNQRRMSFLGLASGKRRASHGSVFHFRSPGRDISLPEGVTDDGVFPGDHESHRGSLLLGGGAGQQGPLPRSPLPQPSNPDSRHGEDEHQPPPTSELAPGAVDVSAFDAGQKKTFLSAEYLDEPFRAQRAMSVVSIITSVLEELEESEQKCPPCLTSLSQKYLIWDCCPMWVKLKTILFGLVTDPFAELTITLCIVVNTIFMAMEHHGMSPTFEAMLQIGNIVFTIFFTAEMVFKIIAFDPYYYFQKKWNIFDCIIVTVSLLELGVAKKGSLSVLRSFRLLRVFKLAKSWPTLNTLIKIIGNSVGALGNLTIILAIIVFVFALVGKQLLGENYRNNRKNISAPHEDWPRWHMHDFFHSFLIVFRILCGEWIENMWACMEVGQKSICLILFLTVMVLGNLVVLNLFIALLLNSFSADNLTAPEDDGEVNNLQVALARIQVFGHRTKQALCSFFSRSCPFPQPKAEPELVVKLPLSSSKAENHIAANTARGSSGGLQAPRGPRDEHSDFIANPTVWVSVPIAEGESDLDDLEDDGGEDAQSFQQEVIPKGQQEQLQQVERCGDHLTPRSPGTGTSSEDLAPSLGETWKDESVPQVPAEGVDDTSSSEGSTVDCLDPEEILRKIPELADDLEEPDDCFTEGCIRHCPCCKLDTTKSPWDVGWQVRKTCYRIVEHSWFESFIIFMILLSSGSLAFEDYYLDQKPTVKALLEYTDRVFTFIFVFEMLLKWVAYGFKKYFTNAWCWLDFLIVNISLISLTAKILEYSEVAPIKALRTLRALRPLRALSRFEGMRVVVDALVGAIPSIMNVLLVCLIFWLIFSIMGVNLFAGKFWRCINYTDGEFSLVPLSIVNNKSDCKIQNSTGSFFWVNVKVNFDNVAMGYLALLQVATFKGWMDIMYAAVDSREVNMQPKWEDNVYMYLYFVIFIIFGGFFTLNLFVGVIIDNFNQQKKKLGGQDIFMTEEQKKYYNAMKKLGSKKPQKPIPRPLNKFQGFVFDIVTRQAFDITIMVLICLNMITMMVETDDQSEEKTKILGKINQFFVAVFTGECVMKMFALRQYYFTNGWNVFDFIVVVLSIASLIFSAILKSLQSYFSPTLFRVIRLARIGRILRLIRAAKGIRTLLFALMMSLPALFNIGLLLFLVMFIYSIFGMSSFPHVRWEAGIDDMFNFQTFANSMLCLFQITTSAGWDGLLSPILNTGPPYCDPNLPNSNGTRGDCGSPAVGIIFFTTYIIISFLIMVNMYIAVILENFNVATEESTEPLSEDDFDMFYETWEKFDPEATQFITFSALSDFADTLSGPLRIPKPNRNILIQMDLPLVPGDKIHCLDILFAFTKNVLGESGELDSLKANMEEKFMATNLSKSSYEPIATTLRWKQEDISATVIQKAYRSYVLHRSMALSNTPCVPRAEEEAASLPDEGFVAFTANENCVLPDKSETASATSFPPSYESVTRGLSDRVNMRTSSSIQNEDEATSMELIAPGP
Assay: FRET-based membrane potential assay, recombinant human sodium channel Nav1.8
Conditions: HEK293 cells stably expressing recombinant human Nav1.8; depolarization with veratridine (EC80) + scorpion venom
log10 IC50 by entry:
Please be aware that the numbers have been log10-transformed from IC50 in µM.

Given the entry COC1CN(C(=O)CN2CCN(c3cccc4c3cnn4-c3ccccc3F)C2=O)C1 [Example 319] , report its measured log10 IC50. 0.48

What measured log10 IC50 goes with CC(C)(C)NC(=O)CN1CCN(c2cccc3c2cnn3-c2ccccc2F)C1=O [Example 339] ? 0.43

* * *

Property: IC50; scope: individual compounds
Target: UniProt:Q15858
Assay: FRET-based membrane potential assay, recombinant human sodium channel Nav1.7
Conditions: HEK293 cells stably expressing recombinant human Nav1.7; depolarization with veratridine (EC80) + scorpion venom

Example entries and their recorded answers appear below.
# compound, IC50
measured = [
    ("O=C(CN1CCN(c2cccc3c2cnn3-c2ccccc2F)C1=O)N1CCCC(F)(F)C1", "3.18 µM"),
    ("CCOCC1(F)CCN(C(=O)CN2CCN(c3cccc4c3cnn4-c3ccccc3F)C2=O)C1 (stereo not shown)", "1.44 µM"),
    ("O=C1N(c2cccc3c2cnn3-c2ccccc2F)CCN1[C@@H]1CCCC[C@H]1OCc1ccccc1", "0.338 µM"),
    ("CC(C)c1cc(CN2CCN(c3cccc4c3cnn4-c3ccccc3F)C2=O)no1", "2.06 µM"),
    ("Cc1noc([C@@H](C)N2CCN(c3cccc4c3cnn4-c3ccc(F)cc3F)C2=O)n1", "0.932 µM"),
    ("CC1(NC(=O)CN2CCN(c3cccc4c3cnn4-c3ccccc3F)C2=O)CC1", "2.41 µM"),
]

What value of IC50 has been reported for the following compound? CCNC(=O)CN1CCN(c2cccc3c2cnn3-c2ccccc2F)C1=O 2.96 µM

Which value of IC50 has been reported for O=C1N(c2cccc3c2cnn3-c2ccccc2F)CCN1[C@H]1CCCC[C@@H]1OCc1ccccc1 in the records? 1.41 µM

Item under review: O=C1N(Cc2nc3ccccc3s2)CCN1c1cccc2c1cnn2-c1ccccc1F . Reported IC50? 15.4 µM

* * *

Molecular target: human Nav1.7 (Homo sapiens (Human), UniProt Q15858)
Sequence (Q15858 whole entry): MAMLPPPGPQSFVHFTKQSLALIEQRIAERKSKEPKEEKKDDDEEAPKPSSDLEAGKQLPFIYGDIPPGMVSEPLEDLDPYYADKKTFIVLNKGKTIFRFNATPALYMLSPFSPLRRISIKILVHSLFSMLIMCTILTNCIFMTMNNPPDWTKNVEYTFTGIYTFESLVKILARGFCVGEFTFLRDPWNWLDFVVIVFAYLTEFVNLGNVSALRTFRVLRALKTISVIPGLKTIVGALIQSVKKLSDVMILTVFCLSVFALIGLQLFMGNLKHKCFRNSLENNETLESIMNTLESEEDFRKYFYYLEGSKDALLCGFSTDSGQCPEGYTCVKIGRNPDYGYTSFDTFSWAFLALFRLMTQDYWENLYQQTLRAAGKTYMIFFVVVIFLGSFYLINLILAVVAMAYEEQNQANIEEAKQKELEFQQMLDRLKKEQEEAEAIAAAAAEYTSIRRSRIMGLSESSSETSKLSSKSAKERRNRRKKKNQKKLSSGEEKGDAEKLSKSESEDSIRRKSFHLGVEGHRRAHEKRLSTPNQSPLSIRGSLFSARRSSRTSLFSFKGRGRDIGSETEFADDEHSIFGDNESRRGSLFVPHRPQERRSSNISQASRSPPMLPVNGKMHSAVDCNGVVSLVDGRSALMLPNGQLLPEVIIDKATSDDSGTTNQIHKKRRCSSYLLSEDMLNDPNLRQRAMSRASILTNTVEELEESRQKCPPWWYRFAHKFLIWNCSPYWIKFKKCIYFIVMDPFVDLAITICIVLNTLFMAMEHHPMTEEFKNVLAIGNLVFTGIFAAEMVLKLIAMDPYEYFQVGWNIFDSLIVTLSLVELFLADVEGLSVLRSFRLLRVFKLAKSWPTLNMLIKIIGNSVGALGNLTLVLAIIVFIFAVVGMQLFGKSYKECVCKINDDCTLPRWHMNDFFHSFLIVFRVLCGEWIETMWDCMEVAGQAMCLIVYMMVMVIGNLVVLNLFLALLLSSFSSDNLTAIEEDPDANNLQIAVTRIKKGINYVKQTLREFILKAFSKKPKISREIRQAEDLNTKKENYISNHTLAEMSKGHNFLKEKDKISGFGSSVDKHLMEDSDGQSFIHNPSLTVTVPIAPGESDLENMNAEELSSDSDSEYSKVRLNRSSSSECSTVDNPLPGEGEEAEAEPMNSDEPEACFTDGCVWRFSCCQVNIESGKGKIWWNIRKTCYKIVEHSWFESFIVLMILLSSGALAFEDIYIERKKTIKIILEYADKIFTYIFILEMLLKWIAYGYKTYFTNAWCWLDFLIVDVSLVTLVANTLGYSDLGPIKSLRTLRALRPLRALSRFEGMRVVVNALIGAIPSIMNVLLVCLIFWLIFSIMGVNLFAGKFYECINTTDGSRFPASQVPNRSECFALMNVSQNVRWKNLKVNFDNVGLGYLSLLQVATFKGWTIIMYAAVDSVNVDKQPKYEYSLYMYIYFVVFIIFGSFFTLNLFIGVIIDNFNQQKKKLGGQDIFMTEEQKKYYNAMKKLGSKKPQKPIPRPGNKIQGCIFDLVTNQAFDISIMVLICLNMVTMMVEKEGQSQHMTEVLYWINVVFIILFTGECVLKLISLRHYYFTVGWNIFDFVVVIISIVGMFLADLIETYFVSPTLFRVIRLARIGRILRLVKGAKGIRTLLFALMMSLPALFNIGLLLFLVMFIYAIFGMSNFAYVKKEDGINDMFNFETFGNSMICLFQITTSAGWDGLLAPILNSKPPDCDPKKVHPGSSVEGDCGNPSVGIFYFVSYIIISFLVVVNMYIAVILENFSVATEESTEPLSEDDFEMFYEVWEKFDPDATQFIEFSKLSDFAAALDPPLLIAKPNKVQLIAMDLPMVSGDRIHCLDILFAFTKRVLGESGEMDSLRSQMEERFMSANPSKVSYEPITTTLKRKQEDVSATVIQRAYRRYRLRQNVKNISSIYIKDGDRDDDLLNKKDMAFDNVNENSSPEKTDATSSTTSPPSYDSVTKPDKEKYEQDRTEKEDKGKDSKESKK
Assay: FRET-based membrane potential assay, recombinant human sodium channel Nav1.7
Settings: HEK293 cells stably expressing recombinant human Nav1.7; depolarization with veratridine (EC80) + scorpion venom
endpoint-label: log10 IC50 (log10 of the value in µM)
Recorded IC50 (log10, µM)

Sample answers from the record:
# compound, system-name, log10 IC50
data = [
    ("CC(C)(C)n1ncc2c(N3CCN(CC(=O)N4CC[C@H](F)C4)C3=O)cccc21 [Example 306]", "human Nav1.7 (Homo sapiens (Human), UniProt Q15858)", 1.30),
    ("CCCS(=O)(=O)N1CCN(c2cccc3c2cnn3-c2ccccc2F)C1=O [Example 81]", "human Nav1.7 (Homo sapiens (Human), UniProt Q15858)", 0.61),
    ("O=C(CN1CCN(c2cccc3c2cnn3-c2ccccc2F)C1=O)N1CC(F)C1 [Example 298]", "human Nav1.7 (Homo sapiens (Human), UniProt Q15858)", 0.53),
]

Test system human Nav1.7 (Homo sapiens (Human), UniProt Q15858); read-out log10 IC50; what value for CC(C)C[C@H](O)CN1CCN(c2cccc3c2cnn3-c2ccccc2F)C1=O [Example 156] ? 0.13

Missing value: log10 IC50, human Nav1.7 (Homo sapiens (Human), UniProt Q15858), entry O=C(CN1CCN(c2cccc3c2cnn3-c2ccccc2F)C1=O)c1ccc2c(c1)OCO2 [Example 153] . Fill in? 0.12

What measured log10 IC50 is associated with CN1C(=O)[C@H]2CN(C(=O)CN3CCN(c4cccc5c4cnn5-c4ccccc4F)C3=O)C[C@H]2C1=O [Example 108] on human Nav1.7 (Homo sapiens (Human), UniProt Q15858)? 1.09

Requested read-out log10 IC50, target or system human Nav1.7 (Homo sapiens (Human), UniProt Q15858), entry O=C(CN1CCN(c2cccc3c2cnn3-c2ccccc2F)C1=O)NCc1cc(F)cc(F)c1 [Example 177] -0.02

What measured log10 IC50 is associated with O=C1N(c2cccc3c2cnn3-c2ccccc2F)CCN1C1CN(S(=O)(=O)CC2CC2)C1 [Example 283] on human Nav1.7 (Homo sapiens (Human), UniProt Q15858)? 0.41

* * *

Some compounds, each annotated with its measured IC50.
Target: human Nav1.7 (Homo sapiens (Human))
Experiment: FRET-based membrane potential assay, recombinant human sodium channel Nav1.7
Conditions: HEK293 cells stably expressing recombinant human Nav1.7; depolarization with veratridine (EC80) + scorpion venom
Could you give me the number in nM? Just the number is fine.

# compound, IC50 [nM]
rows = [
    ("O=C(CCN1CCN(c2cccc3c2cnn3-c2ccccc2F)C1=O)N1CCC[C@@H](F)C1", 2440),
    ("O=C(CN1CCN(c2cccc3c2cnn3-c2ccccc2F)C1=O)N1CCCCC1", 2510),
    ("CN(C(=O)CN1CCN(c2cccc3c2cnn3-c2ccccc2F)C1=O)C1CCC1", 3480),
    ("O=C1N(c2nccs2)CCN1c1cccc2c1cnn2-c1ccccc1F", 9500),
    ("O=C1N(Cc2nc(C(F)(F)F)cs2)CCN1c1cccc2c1cnn2-c1ccccc1F", 618),
    ("C[C@@H](NC(=O)CN1CCN(c2cccc3c2cnn3-c2ccccc2F)C1=O)c1ccccc1", 983),
]

Which value of IC50 has been reported for CC(C)(C)CNC(=O)CN1CCN(c2cccc3c2cnn3-c2ccccc2F)C1=O in the records? 3060

Quick one: IC50 for O=C1N(CC(=O)N2CCOC3CCCCC32)CCN1c1cccc2c1cnn2-c1ccccc1F (centres unmarked) ? 1330

What does the data say about its IC50? Entry: CC(C)(C)C(=O)N1CCN(c2cccc3c2cnn3-c2ccccc2F)C1=O 1990

Record request: IC50 value, item O=C(CN1CCN(c2cccc3c2cnn3-c2ccccc2F)C1=O)c1ccc(C(F)(F)F)cc1 20000

Please look up its IC50: COc1cccc(C(=O)CN2CCN(c3cccc4c3cnn4-c3ccccc3F)C2=O)c1 2970

Recorded IC50 of CC(C)(C)CCn1ncc2c(N3CCN(CC(=O)N4CCCC4)C3=O)cccc21 , please. 3670

Reported IC50 for CC(C)CC(=O)CN1CCCN(c2cccc3c2cnn3-c2ccccc2F)C1=O : what is it? 1660

Which IC50 is listed for C[C@@]1(c2cccc(F)c2)C[C@H](N2CCN(c3cccc4c3cnn4-c3ccccc3F)C2=O)CO1 ? 1390

Could you tell me which IC50 is on file for CC(C)CS(=O)(=O)N1CCN(c2cccc3c2cnn3-c2ccccc2F)C1=O ? 2380

Would you mind telling me what IC50 value was observed for CC(C)[C@H]1CCCCN1C(=O)CN1CCN(c2cccc3c2cnn3-c2ccccc2F)C1=O ? 1200

Look up IC50: COc1cncc(N2CCN(c3cccc4c3cnn4-c3ccccc3F)C2=O)c1 3730

* * *

Quick list: IC50 per entry.
Molecular target: human Nav1.7 (Homo sapiens (Human), UniProt Q15858)
Assay: FRET-based membrane potential assay, recombinant human sodium channel Nav1.7
Type: cell-based
Conditions: HEK293 cells stably expressing recombinant human Nav1.7; depolarization with veratridine (EC80) + scorpion venom
Give me the value, and tack the unit on after it.

Use the examples below as a reference point.
# chemical-smiles, value-reported
rows = [
    ("Cc1nnc(CN2CCN(c3cccc4c3cnn4-c3ccc(F)cc3F)C2=O)s1", "2900 nM"),
    ("O=C1N(CC(=O)N2CCC[C@H]2C(F)(F)F)CCN1c1cccc2c1cnn2-c1ccccc1F", "1070 nM"),
    ("O=C(CN1CCN(c2cccc3c2cnn3-c2ccccc2F)C1=O)N[C@H]1CCOC1", "2460 nM"),
]

# input for lookup
Entry O=C1N(c2cccc3c2cnn3-c2ccccc2F)CCN1[C@H]1CCOC1 has what IC50? 3600 nM

* * *

Target: human Nav1.7 (Homo sapiens (Human), UniProt Q15858)
Assay: FRET-based membrane potential assay, recombinant human sodium channel Nav1.7
Conditions: HEK293 cells stably expressing recombinant human Nav1.7; depolarization with veratridine (EC80) + scorpion venom
List of pIC50 values.
Please note pIC50 is a logarithmic value: minus log10 of concentration in mol/L. Answer with that number alone.

Previously resolved entries follow.
# compound, system-name, value-reported
records = [
    ("CNS(=O)(=O)N1CCN(c2cccc3c2cnn3-c2ccccc2F)C1=O [Example 62]", "human Nav1.7 (Homo sapiens (Human), UniProt Q15858)", 5.77),
    ("Cc1cc(CN2CCN(c3cccc4c3cnn4-c3ccccc3F)C2=O)on1 [Example 244]", "human Nav1.7 (Homo sapiens (Human), UniProt Q15858)", 5.51),
    ("O=C(CN1CCN(c2cccc3c2cnn3-c2ccccc2F)C1=O)N1CC2(COC2)C1 [Example 100]", "human Nav1.7 (Homo sapiens (Human), UniProt Q15858)", 5.30),
]

Can you share its pIC50? I mean this compound: O=C(CN1CCN(c2cccc3c2cnn3-c2ccccc2F)C1=O)N1CCC[C@@H](O)C1 [Example 52] 5.60

Item under review: O=C1N(CC(O)CC2CCCC2)CCN1c1cccc2c1cnn2-c1ccccc1F (stereo not shown) [Example 135] . Reported pIC50? 6.04

Could you tell me which pIC50 is on file for C[C@H](NC(=O)CN1CCN(c2cccc3c2cnn3-c2ccccc2F)C1=O)c1ccccc1 [Example 178] ? 5.70
